Origin of the recorded values: ChEMBL document CHEMBL4619741

- Test system: Mus musculus
- assay-info: Antidepressant activity in mouse assessed as reduction in duration of immobility at 30 mg/kg, ip relative to control
- Format: functional
Short version: inhibition in vivo at 30 mg/kg at least 80% is condition met, less is condition not met.

Past entries and their recorded results:
Cc1nc2ccccc2c(-c2ccccc2)c1C(=O)/C=C/c1cccc(Br)c1 condition met
Cc1nc2ccccc2c(-c2ccccc2)c1C(=O)/C=C/c1ccc(F)cc1 condition met

[ask] Has Cc1nc2ccccc2c(-c2ccccc2)c1C(=O)/C=C/c1ccc(Cl)cc1 a recorded inhibition in vivo at 30 mg/kg greater than or equal to 80%?
[reply] condition met

[ask] Hi, just wondering whether Cc1nc2ccccc2c(-c2ccccc2)c1C(=O)/C=C/c1ccc(C(C)C)cc1 shows inhibition in vivo at 30 mg/kg of 80% or higher.
[reply] condition met

[ask] Does Cc1nc2ccccc2c(-c2ccccc2)c1C(=O)/C=C/c1ccc([N+](=O)[O-])cc1 have a reported inhibition in vivo at 30 mg/kg of at least 80%?
[reply] condition not met
